Provenance of the data: ChEMBL document CHEMBL1132980

Target: Adenosine receptor A1 (Bos taurus)
Sequence (P28190 whole entry): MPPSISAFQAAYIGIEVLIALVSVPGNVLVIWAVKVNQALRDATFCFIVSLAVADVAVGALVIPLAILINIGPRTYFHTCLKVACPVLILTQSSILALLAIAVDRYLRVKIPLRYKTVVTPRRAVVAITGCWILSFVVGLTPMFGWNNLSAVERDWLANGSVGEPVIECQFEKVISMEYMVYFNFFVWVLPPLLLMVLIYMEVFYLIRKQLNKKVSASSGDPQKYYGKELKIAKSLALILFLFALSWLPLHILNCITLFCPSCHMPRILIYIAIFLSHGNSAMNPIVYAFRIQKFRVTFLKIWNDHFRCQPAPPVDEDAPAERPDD
Experiment: Binding affinity towards adenosine A1 receptor of bovine brain membrane in presence of [3H]CHA at a concentration of 20 uM
A collection of compounds and their measured Ki
Number only, in nM; omit the unit.

// known answers, use as guide
>>> print(df.to_string())
                              record_smiles  recorded_number
0   O=c1[nH]c2ccccc2n2c(=O)n(-c3ccccc3)nc12              515
1  Cc1ccc(-n2nc3c(=O)[nH]c4ccccc4n3c2=O)cc1              155
2  O=c1n(-c2ccccc2)nc2c(NC3CCCC3)nc3ccccc3n12             0.42
3  O=c1n(-c2ccccc2)nc2c(NCCc3ccccc3)nc3ccccc3n12              4.8
4  O=c1n(-c2ccc(Cl)cc2)nc2c(NC3CCCCC3)nc3ccccc3n12             80.1

Requested field: Ki. Item: Nc1nc2ccccc2n2c(=O)n(-c3cccc(F)c3)nc12 28.5

Data request, read-out Ki, for O=C(Nc1nc2ccccc2n2c(=O)n(-c3ccccc3)nc12)c1ccccc1 89.6

State the recorded Ki for this entry: O=c1[nH]c2ccccc2n2c(=O)n(-c3ccc(Cl)cc3)nc12 1020

Reported Ki, compound COc1ccc(-n2nc3c(=O)[nH]c4ccccc4n3c2=O)cc1 : ____ 934

What does the data say about its Ki? Entry: CCC(=O)Nc1nc2ccccc2n2c(=O)n(-c3ccccc3)nc12 9.3

###

System: Adenosine receptor A2a (Bos taurus)
Test: Binding affinity towards adenosine A2A receptor of bovine striatal membrane in presence of [3H]-CGS- at a concentration of 20 uM
value_kind: inhibition (%)
Dear colleague, please return just the value in %, with no unit written.

Illustrative cases are given below, each with its answer.
                              record_smiles                         study_system  recorded_number
0  Cn1c(=O)c2nn(-c3ccc(Cl)cc3)c(=O)n2c2ccccc21  Adenosine receptor A2a (Bos taurus)                8
1  Cc1cccc(-n2nc3c(NC4CCCCC4)nc4ccccc4n3c2=O)c1  Adenosine receptor A2a (Bos taurus)               41
2  O=c1n(-c2ccccc2)nc2c(NCCc3ccccc3)nc3ccccc3n12  Adenosine receptor A2a (Bos taurus)               59

Please report the recorded inhibition for Cc1cccc(-n2nc3c(=O)[nH]c4ccccc4n3c2=O)c1 . 5

Suppose we examine the compound O=C(Cc1ccccc1)Nc1nc2ccccc2n2c(=O)n(-c3ccccc3)nc12 ; what inhibition value has been reported? 62

###

Target: Adenosine receptor A3 (Homo sapiens, UniProt P0DMS8)
Sequence (P0DMS8 whole entry): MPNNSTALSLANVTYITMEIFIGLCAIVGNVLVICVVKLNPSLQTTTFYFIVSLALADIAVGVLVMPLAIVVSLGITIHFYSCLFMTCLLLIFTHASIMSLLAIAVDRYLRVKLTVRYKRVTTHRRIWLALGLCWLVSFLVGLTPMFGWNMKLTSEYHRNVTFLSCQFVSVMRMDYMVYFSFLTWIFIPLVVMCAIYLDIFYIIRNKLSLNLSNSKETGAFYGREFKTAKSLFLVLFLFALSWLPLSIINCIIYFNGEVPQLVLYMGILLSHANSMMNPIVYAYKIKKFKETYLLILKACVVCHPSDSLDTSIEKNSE
Experiment: Binding affinity towards human adenosine A3 receptor expressed in HEK293 cells in presence of [125I]-AB-MECA at a concentration of 1 uM
Type: cell-based
Entries whose Ki is below 200 nM take met; entries at or above 200 nM take not met.

As a guide, the following entries are already answered.
>>> df
                              record_smiles  group_label
0  COc1ccc(NC(=O)Nc2nc3ccccc3n3c(=O)n(-c4ccccc4)nc23)cc1      not met
1  C#CCn1c(=O)c2nn(-c3ccccc3)c(=O)n2c2ccccc21      not met
2  O=c1n(-c2cccc(F)c2)nc2c(NC3CCCC3)nc3ccccc3n12          met
3   Nc1nc2ccccc2n2c(=O)n(-c3ccc(Cl)cc3)nc12      not met
4  COc1ccc(-n2nc3c(=O)[nH]c4ccccc4n3c2=O)cc1          met

Consider the compound Nc1nc2ccccc2n2c(=O)n(-c3cccc(F)c3)nc12 . Is its Ki strictly less than 200 nM? met

Quick check: Ki of O=c1n(-c2ccccc2)nc2c(NC3CCCC3)nc3ccccc3n12 under 200 nM? met

###

System: Adenosine receptor A2a (Bos taurus)
Assay: Binding affinity towards adenosine A2A receptor of bovine striatal membrane in presence of [3H]-CGS- at a concentration of 20 uM
value_kind: inhibition
// return the numeric value with its unit appended

In [3]: df
Out[3]:
                             record_smiles  result
0  Nc1nc2ccccc2n2c(=O)n(-c3ccc(Cl)cc3)nc12     37%

Fill in: inhibition of Cn1c(=O)c2nn(-c3ccccc3)c(=O)n2c2ccccc21 is ___ 53%

Can you look up the measured inhibition of O=c1[nH]c2ccccc2n2c(=O)n(-c3ccccc3)nc12 for me? 64%

Data request, read-out inhibition, for O=C(Nc1nc2ccccc2n2c(=O)n(-c3ccccc3)nc12)c1ccccc1 53%

Param item = O=c1n(-c2ccccc2)nc2c(NCc3ccccc3)nc3ccccc3n12 ; retrieve measured inhibition. 59%
